Source of measurements: patent US11091559B2

Test system: ALK (total protein levels in NB1 cells)
methodSummary: ALK turnover (total protein levels) by Western blot, 24 hour treatment of NB1 cells
Type: cell-based, human
Set-up: key: − none; + weak; ++ moderate; +++ strong
metric: ALK turnover

Consider the reported ALK turnover for these molecules:
[[record]]
molecule = "Ab322: anti-ALK monoclonal antibody; VL SEQ ID NO: 399, VH SEQ ID NO: 400 (antibody, V domains shown, VH domain - Ab322; VL domain - Ab322) VH: QVQLQQSGAELAKPGASVKLSCKASGYTFTNYWMHWVKQRPGQGLEWIGYINPSSGYTKYNQKFKDKATLTADKSSSTAYMQLSSLTYEDSAVYYCARDYYGSSSWFAYWGQGTLVTVSA VL: DIVMTQSQRFMSTSVGDRVSVTCKASQNVGTNVAWYQQKPGQSPKALIYSASYRYSGVPDRFTGSGSGTDFTLTVSNVQSEDLAEYFCQQYNSYPYMYTFGGGTKLEIKR"
valuemeasured = "−"

[[record]]
molecule = "Ab325: anti-ALK monoclonal antibody; VL SEQ ID NO: 405, VH SEQ ID NO: 406 (antibody, V domains shown, VH domain - Ab325; VL domain - Ab325) VH: QVQLQQSGAELVKPGASVKISCKASGYAFSSYWMNWVKQRPGKGLEWIGQIYPGDGDTNYNGKFKGKATLTADKSSSTAYMQLSSLTSEDSAVYFCARWYYGSYYAMDYWGQGTSVTVSS VL: DIQMTQTTSSLSASLGDRVTISCRASQDISNYLNWYQQKPDGTVKLLIYYTSRLHSGVPSRFSGSGSGTDYSLTISNLEQEDIATYFCQQGNTLPRTFGGGTKLEIKR"
valuemeasured = "++"

[[record]]
molecule = "Ab323: anti-ALK monoclonal antibody; VL SEQ ID NO: 401, VH SEQ ID NO: 402 (antibody, V domains shown, VH domain - Ab323; VL domain - Ab323) VH: QVQLQQSGAELVKPGASVKISCKTSGYTFSNYWMNWVKQRPGKGLEWIGQIFPGDADANYNGKFKGKATLTADKSSSAAFMQLSSLTSEDSAVYFCARFSYDGAFAYWGQGTLVTVS VL: DIVMTQSHKFMSTSVGDRVSITCKASQDVSTAVAWYQQKPGQSPKPLIYWASTRHTGVPDRFTGSGSGTDYTLTISSVQTEDLALYYCQQHYSTPRTFGGGTKLEIKR"
valuemeasured = "++"

[[record]]
molecule = "Ab328: anti-ALK monoclonal antibody; VL SEQ ID NO: 411, VH SEQ ID NO: 412 (antibody, V domains shown, VH domain - Ab328; VL domain - Ab328) VH: QVQLQQSGAELAKPGASVKLSCKASGYTFTSYWMHWVKQRPGQGLEWIGYINPSSGYTKYNQKFKDKATLTADKSSSTAYMQLSSLTFEDSAVYYCARDYYGSSSWFAYWGQGTLVTVSA VL: DIVMTQSQKFMSTSVGDRVSVTCKASQNVGTNVAWYQQKPGHSPKALIYSASYRYSGVPDRFTGSGSGTDFTLTISNVQSEDLAEYFCQRYNSYPYMFTFGGGTKLEIKR"
valuemeasured = "+++"

[[record]]
molecule = "Ab320: anti-ALK monoclonal antibody; VL SEQ ID NO: 395, VH SEQ ID NO: 396 (antibody, V domains shown, VH domain - Ab320; VL domain - Ab320) VH: QVQLQQSGAELVKPGASVKISCKASGYAFSSYWMNWVKQRPGKGLEWIGQIYPGDGDTNYNGKFKGKATLTADKSSSTAYMQLSSLTSEDSAVYFCASYYYGSKAYWGQGTLVTVSA VL: DIQMTQSPASLAASVGETVTITCRASENIYYSLAWYQQKQGKSPQLLIYNANSLEDGVPSRFSGSGSGTQYSMKINSMQPEDTATYFCKQAYDVPFTFGSGTKLEIKR"
valuemeasured = "−"


// query Tell me the measured ALK turnover of Ab327: anti-ALK monoclonal antibody; VL SEQ ID NO: 409, VH SEQ ID NO: 410 (antibody, V domains shown, VH domain - Ab327; VL domain - Ab327) VH: DVKLVESGEGLVKPGGSLKLSCAASGFTFSSYAMSWVRQTPEKRLEWVTYISSGGDYIYYADTVKGRFTISRDNARNTLYLQMSSLKSEDTAMYYCTRERIWLRRFFDVWGTGTTVTVSS VL: DIVMTQSQKFMSTSVGDRVSITCKASQNVGTAVAWYQLKPGQSPKLLIYSASNRFTGVPDRFTGSGSGTDFTLTISNMQSEDLADYFCQQYSSYPLTFGSGTKLEIKR , please.
// result ++

// query Given the molecule Ab326: anti-ALK monoclonal antibody; VL SEQ ID NO: 407, VH SEQ ID NO: 408 (antibody, V domains shown, VH domain - Ab326; VL domain - Ab326) VH: QVQLQQSGAELAKPGASVKLSCKASGYTFTSYWMHWVKQRPGQGLEWIGYIKPSSGYTKYNQKFKDKATLTADKSSSTAYMQLSSLTYEDSAVYYCARDYYGSSSWFAYWGQGTLVTVSA VL: DIVMTQSQRFMSTSVGDRVSVTCKASQNVGTNVAWYQQKPGQSPKALIYSASYRYSGVPDRFTGSGSGTDFTLTISNVQSEDLAEYFCQQYNSYPYMYTFGGGTKLEIKR , what is its reported ALK turnover?
// result −
